Values compiled from ChEMBL document CHEMBL1130209.

target: 5-hydroxytryptamine receptor 1B (Homo sapiens) (UniProt P28222); assay: Dissociation equilibrium constant against the vascular 5-hydroxytryptamine 1B like receptor in the rabbit saphenous vein; type: tissue-based; conditions: Oryctolagus cuniculus, target entry is the homologue from another species
Sequence (P28222 whole entry): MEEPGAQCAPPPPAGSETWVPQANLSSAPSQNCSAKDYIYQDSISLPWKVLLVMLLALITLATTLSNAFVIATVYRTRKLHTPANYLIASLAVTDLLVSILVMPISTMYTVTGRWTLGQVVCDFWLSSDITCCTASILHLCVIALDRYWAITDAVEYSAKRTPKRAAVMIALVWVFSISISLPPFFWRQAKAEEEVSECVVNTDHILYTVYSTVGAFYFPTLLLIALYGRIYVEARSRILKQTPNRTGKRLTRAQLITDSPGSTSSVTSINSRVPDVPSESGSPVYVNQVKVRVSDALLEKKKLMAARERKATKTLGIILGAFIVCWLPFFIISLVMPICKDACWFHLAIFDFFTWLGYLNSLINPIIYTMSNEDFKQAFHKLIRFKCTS
experimental_readout: pKB

> print(dat)
                                    compound  value
 1  COC(=O)c1[nH]c2ccc(CCN3CCOC3=O)cc2c1CCN(C)C      6
 2  CN(C)CCc1c(C#N)[nH]c2ccc(CC3COC(=O)N3)cc12 (stereo not drawn)    4.8
 3  CCOC(=O)c1[nH]c2ccc(CCN3C(=O)CNC3=O)cc2c1CCN(C)C   7.42
 4  CN(C)CCc1c(C(N)=O)[nH]c2ccc(CC3COC(=O)N3)cc12 (stereo not drawn)   4.75
 5  CN(C)CCc1c(Br)[nH]c2ccc(CC3COC(=O)N3)cc12 (stereo not drawn)   5.86
 6  CC(C)OC(=O)c1[nH]c2ccc(CCN3C(=O)CNC3=O)cc2c1CCN(C)C   6.85
 7  COC(=O)c1[nH]c2ccc(CN3C(=O)CNC3=O)cc2c1CCN(C)C   5.41
 8  CCOC(=O)c1[nH]c2ccc(CCN3C(=O)CSC3=O)cc2c1CCN(C)C   7.72
 9  CC(C)OC(=O)c1[nH]c2ccc(CCN3C(=O)NC(C)(C)C3=O)cc2c1C1=CCN(C)CC1   6.34
10  CCOC(=O)c1[nH]c2ccc(CCN3CCCC3=O)cc2c1CCN(C)C    6.1
11  CN(C)CCc1c(C(=O)O)[nH]c2ccc(CCN3C(=O)CNC3=O)cc12   6.17
12  COC(=O)c1[nH]c2ccc(CCN3C(=O)c4ccccc4C3=O)cc2c1CCN(C)C   7.39
13  CC(C)OC(=O)c1[nH]c2ccc(CCN3C(=O)NC(C)(C)C3=O)cc2c1-c1ccncc1   5.25
14  COC(=O)c1[nH]c2ccc(CCN3C(=O)CNC3=O)cc2c1CCN(C)C   6.97
15  CN(C)CCc1c(C(=O)OC2CCCCC2)[nH]c2ccc(CCN3C(=O)NC(C)(C)C3=O)cc12   5.95
16  CCOC(=O)c1[nH]c2ccc(CCC3NC(=O)N(C)C3=O)cc2c1CCN(C)C (stereo not drawn)    7.3
17  CCOC(=O)c1[nH]c2ccc(CCN3C(=O)c4ccccc4C3=O)cc2c1C1=CCN(C)CC1   6.42
18  CCOC(=O)c1[nH]c2ccc(CCN3C(=O)CCC3=O)cc2c1CCN(C)C   6.78
19  CN(C)CCc1c(C(=O)OCc2ccccc2)[nH]c2ccc(CCN3C(=O)CNC3=O)cc12   7.91
20  CC(C)OC(=O)c1[nH]c2ccc(CN3C(=O)NC(C)(C)C3=O)cc2c1CCN(C)C   5.62
21  CCOC(=O)c1[nH]c2ccc(CN3C(=O)CNC3=O)cc2c1CCN(C)C   5.32
22  COC(=O)c1[nH]c2ccc(CCC3COC(=O)N3)cc2c1CCN(C)C (stereo not drawn)   6.61
23  COC(=O)c1[nH]c2ccc(CN3C(=O)NC(C)(C)C3=O)cc2c1CCN(C)C   6.45
24  CC(C)OC(=O)c1[nH]c2ccc(CCN3C(=O)NC(C)(C)C3=O)cc2c1CCN(C)C   6.82
25  CCOC(=O)c1[nH]c2ccc(CCN3C(=O)c4ccccc4C3=O)cc2c1CCN(C)C   7.54
26  CCOC(=O)c1[nH]c2ccc(CC3COC(=O)N3)cc2c1CCN(C)C (stereo not drawn)   6.12
27  CCOC(=O)c1[nH]c2ccc(CCC3COC(=O)N3)cc2c1CCN(C)C (stereo not drawn)   7.21
28  CCOC(=O)c1[nH]c2ccc(CCN3C(=O)CNC3=O)cc2c1-c1ccncc1   5.29
29  COC(=O)c1[nH]c2ccc(CCN3C(=O)NC(C)(C)C3=O)cc2c1CCN(C)C   6.88
30  CCOC(=O)c1[nH]c2ccc(CCN3C(=O)NC(C)(C)C3=O)cc2c1CCN(C)C   7.34
31  CCOC(=O)c1[nH]c2ccc(CCN3C(=O)CNC3=O)cc2c1C1=CCN(C)CC1   5.88
32  CCOC(=O)c1[nH]c2ccc(CN3C(=O)NC(C)(C)C3=O)cc2c1CCN(C)C   6.54
